Values from the supplement of paper PMC10567573

B1: PSD2 (parent)
chain: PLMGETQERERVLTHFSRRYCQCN

# Variants of: B1
# procedure_summary: protein stability index of a GFP-peptide fusion (GPS, HEK-293T) (PSI 1-6); higher = more stable;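 further: lentivirally expressed fusions sorted by FACS into six bins by GFP to DsRed ratio, PSI derived from sequencing read proportions per bin multiplied by bin number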
# condition_notes: c terminus: a fixed tail appended
Please note: Satisfied applies when protein stability index is 3 or greater, and Not satisfied applies otherwise.

Prompt: # bool: protein stability index of V12C >= 3
Completion: Satisfied

Prompt: # bool: protein stability index of R11F >= 3
Completion: Not satisfied

Prompt: # bool: protein stability index of M3R >= 3
Completion: Not satisfied
